- target.or.test.system: cCaSR (Felis catus, UniProt C7FF08)
- Sequence (C7FF08 1-1081): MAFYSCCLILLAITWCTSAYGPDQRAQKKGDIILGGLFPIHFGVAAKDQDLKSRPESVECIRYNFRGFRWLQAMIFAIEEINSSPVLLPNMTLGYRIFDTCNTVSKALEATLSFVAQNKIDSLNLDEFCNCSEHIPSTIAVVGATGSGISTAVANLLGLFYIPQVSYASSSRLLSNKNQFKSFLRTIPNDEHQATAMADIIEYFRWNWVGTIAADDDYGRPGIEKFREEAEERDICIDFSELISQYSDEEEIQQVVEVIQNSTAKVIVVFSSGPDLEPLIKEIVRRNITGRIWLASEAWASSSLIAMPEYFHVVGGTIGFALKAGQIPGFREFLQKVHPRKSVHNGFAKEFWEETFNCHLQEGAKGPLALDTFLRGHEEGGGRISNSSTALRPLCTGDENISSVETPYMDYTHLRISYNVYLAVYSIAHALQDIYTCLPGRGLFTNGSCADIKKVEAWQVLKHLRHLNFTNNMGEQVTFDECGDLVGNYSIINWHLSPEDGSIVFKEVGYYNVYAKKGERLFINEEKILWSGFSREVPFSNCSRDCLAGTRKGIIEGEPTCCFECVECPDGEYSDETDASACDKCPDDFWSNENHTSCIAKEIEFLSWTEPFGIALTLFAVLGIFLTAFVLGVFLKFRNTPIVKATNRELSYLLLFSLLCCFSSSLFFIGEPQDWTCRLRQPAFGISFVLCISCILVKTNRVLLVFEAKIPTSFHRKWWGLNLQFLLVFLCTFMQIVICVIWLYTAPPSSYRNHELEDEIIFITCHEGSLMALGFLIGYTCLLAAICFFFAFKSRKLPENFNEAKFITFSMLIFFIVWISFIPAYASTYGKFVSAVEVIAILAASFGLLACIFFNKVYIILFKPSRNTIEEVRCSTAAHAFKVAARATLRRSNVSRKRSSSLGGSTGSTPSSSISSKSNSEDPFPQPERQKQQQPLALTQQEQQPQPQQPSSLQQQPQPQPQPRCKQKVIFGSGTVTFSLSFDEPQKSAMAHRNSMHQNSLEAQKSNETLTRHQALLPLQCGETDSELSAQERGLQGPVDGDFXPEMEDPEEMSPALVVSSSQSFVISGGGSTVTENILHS
- assay.summary: cCaSR transiently expressed in HEK293/natClytin, agonist luminescence assay
- Format: cell-based
- experimental.setup: transiently expressed cCaSR; > 3 mM = maximal response not reached; read-out: cCaSR EC50
experimental.readout: pEC50
Answers are plain numbers, as −log10 of the molar value.

The following molecules have reported results that may help.
molecule	target.or.test.system	pEC50
NC[C@H]1O[C@H](O[C@H]2[C@H](O)[C@@H](O[C@H]3O[C@H](CO)[C@@H](O)[C@H](N)[C@H]3O)[C@H](N)C[C@@H]2N)[C@H](N)C[C@@H]1O [Tobramycin, reference compound]	cCaSR (Felis catus, UniProt C7FF08)	3.55
CC(C)[C@H](NC(=O)CC[C@H](N)C(=O)O)C(=O)NCC(=O)O	cCaSR (Felis catus, UniProt C7FF08)	2.44
[Ca+2].[Cl-].[Cl-]	cCaSR (Felis catus, UniProt C7FF08)	2.94
[Cl-].[Cl-].[Mg+2]	cCaSR (Felis catus, UniProt C7FF08)	2.07

With those in mind, consider the next molecule.
Q: Entry N[C@@H](CC(=O)O)C(=O)O , system cCaSR (Felis catus, UniProt C7FF08): what pEC50 was measured?
A: 1.93

###

So I've got a bunch of compounds here, and I need their EC50 values.
- target.or.test.system: cCaSR (Felis catus, UniProt C7FF08)
- experimental.setup: read-out: cCaSR activity; agonist assay, stable inducible cCaSR line, at least three wells

The following compounds have reported results that may help.
                                   compound  experimental_readout   observed_result
0  O=S(=O)([O-])C(F)(F)F.O=S(=O)([O-])C(F)(F)F.O=S(=O)([O-])C(F)(F)F.[Pr+3]                  EC50         < 1000 µM
1                        [Ca+2].[Cl-].[Cl-]                  EC50  1000 to 10000 µM
2  CC(=O)[O-].CC(=O)[O-].CC(=O)[O-].O.[Tb+3] [Tb^3+, Terbium(III) acetate hydrate]                  EC50         < 1000 µM

Take each entry in turn and give its EC50.
1. [Cl-].[Cl-].[Mg+2]
2. [Gd+3]
3. [Sr+2]

A:
1. > 10000 µM
2. < 1000 µM
3. > 10000 µM

###

So I've got a bunch of compounds here, and I need their EC50 values.
- target.or.test.system: cCaSR (Felis catus)
- assay.summary: cell-based
- experimental.setup: cCaSR activity, agonist assay, stable inducible cCaSR line, at least three wells

The following compounds have reported results that may help.
In [3]: df
Out[3]:
                                   compound  observed_result
0  CC(C)[C@H](NC(=O)CC[C@H](N)C(=O)O)C(=O)O       1 to 10 mM
1  CC(C)C[C@H](NC(=O)CC[C@H](N)C(=O)O)C(=O)O          > 10 mM

Take each entry in turn and give its EC50.
1. N[C@@H](CCC(=O)N[C@@H](Cc1c[nH]c2ccccc12)C(=O)O)C(=O)O
2. CSC[C@H](NC(=O)CC[C@H](N)C(=O)O)C(=O)NCC(=O)O
3. CC[C@H](NC(=O)CC[C@H](N)C(=O)O)C(=O)O
4. N[C@@H](CCC(=O)N[C@@H](Cc1ccc(O)cc1)C(=O)O)C(=O)O
5. NC(CCCCC(=O)O)C(=O)O (stereo not drawn)
6. CC[C@H](NC(=O)CC[C@H](N)C(=O)O)C(=O)NCC(=O)O

A:
> 10 mM
1 to 10 mM
> 10 mM
1 to 10 mM
> 10 mM
1 to 10 mM

Take each entry in turn and give its EC50.
1. N[C@@H](CC(=O)N[C@@H](Cc1ccccc1)C(=O)O)C(=O)O
2. NCCCCNCCCN

A:
1. > 10 mM
2. 1 to 10 mM

Take each entry in turn and give its EC50.
1. N[C@@H](CC(=O)O)C(=O)O
2. N[C@@H](CCS(=O)(=O)O)C(=O)O
3. N[C@@H](CCC(=O)NCC(=O)O)C(=O)O
4. N[C@@H](CS(=O)(=O)O)C(=O)O [L-Cysteic acid monohydrate]
5. NC(CCP(=O)(O)O)C(=O)O (stereo not drawn)
6. N[C@@H](CCC(=O)N[C@@H](CCC(=O)O)C(=O)O)C(=O)O

A:
1: 1 to 10 mM; 2: > 10 mM; 3: > 10 mM; 4: 1 to 10 mM; 5: > 10 mM; 6: 1 to 10 mM

Take each entry in turn and give its EC50.
1. COC(=O)C[C@H](N)C(=O)O
2. C[C@H](NC(=O)CC[C@H](N)C(=O)O)C(=O)O
3. N[C@@H](CCC(=O)N[C@@H](CS)C(=O)NCC(=O)O)C(=O)O
4. N[C@@H](CC(=O)NCC(=O)O)C(=O)O
5. N[C@@H](CCCC(=O)O)C(=O)O

A:
1: > 10 mM; 2: > 10 mM; 3: 1 to 10 mM; 4: > 10 mM; 5: > 10 mM

Source listed as paper PMC8131363.
